# target: Human TASK-1 channels (Homo sapiens (Human), UniProt O14649)
# Sequence (O14649 whole entry): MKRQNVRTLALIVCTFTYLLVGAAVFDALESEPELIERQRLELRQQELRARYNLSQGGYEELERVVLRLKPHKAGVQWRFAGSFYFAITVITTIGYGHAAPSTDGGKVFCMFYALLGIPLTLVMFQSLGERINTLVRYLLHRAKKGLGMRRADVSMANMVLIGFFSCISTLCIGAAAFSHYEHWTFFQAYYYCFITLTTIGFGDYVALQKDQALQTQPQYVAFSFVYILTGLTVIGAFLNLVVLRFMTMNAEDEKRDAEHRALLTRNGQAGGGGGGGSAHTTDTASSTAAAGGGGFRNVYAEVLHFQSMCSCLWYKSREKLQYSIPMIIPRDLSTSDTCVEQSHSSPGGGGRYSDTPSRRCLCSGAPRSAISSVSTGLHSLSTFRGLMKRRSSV
# assay.name: Determination of the activity on the TASK-1 channel in Xenopus oocytes (two-microelectrode voltage clamp)
# test.parameters: human TASK-1 expressed in Xenopus oocytes, room temperature; read-out: IC50 value for TASK-1 inhibition
pIC50: −log10 of the molar value.
property.label: pIC50

// known answers, use as guide
compound: CC[C@@H](NC(=O)c1cc(C(=O)N2CCC[C@@H]2C#N)n2c1COCC2)c1ccccc1 [16fm]
property.label: pIC50
experimental.result: 6.68
//
compound: CC[C@@H](NC(=O)c1cc(C(=O)N2CCC[C@@H]2C)n2c1COCC2)c1cnc(C#N)c(Cl)c1 [16rf]
property.label: pIC50
experimental.result: 6.00
//
compound: CC[C@@H](NC(=O)c1cc(C(=O)N[C@H](C)c2ccc(F)cc2)c2n1CSC2)c1ccccc1 [16kw]
property.label: pIC50
experimental.result: 7.02

a. CCC(NC(=O)c1cc(C(=O)N[C@H](CC)c2ccccc2)c2n1CCOC2)c1cnc(OC)nc1 (single isomer, unassigned) [16hu]
b. CC[C@@H](NC(=O)c1cc(C(=O)NC(C)c2nnnn2C)n2c1COCC2)c1ccccc1 (stereo partly shown) [16ro]
Return label of the item with the larger pIC50. Candidates: a , b . Identify your selection by its label.
a

a. CC[C@@H](NC(=O)c1cc(C(=O)N2CCC[C@@H]2C)n2c1COCC2)c1ccc(Cl)nc1 [16ar]
b. CC[C@@H](NC(=O)c1cc(C(=O)N[C@@H](C)C(=O)OC(C)C)n2c1COCC2)c1ccccc1 [16it]
c. CC[C@@H](NC(=O)c1cc(C(=O)N2CCCC2c2ccn(C)n2)n2c1COCC2)c1ccccc1 (stereo partly shown) [16fv]
d. CC[C@@H](NC(=O)c1cc(C(=O)N2CCC[C@@H]2c2cnccn2)n2c1COCC2)c1ccccc1 [16fp]
// ranking: key=pIC50, reverse=True Please respond with the labels ordered as the question requires.
b, a, c, d
(b: 6.89, a: 6.36, c: 6.04, d: 5.72)

a. CCOC(=O)[C@H](NC(=O)c1cc(C(=O)N[C@H](CC)c2ccccc2)c2n1CCOC2)c1ccccc1 [16hq]
b. CC[C@@H](NC(=O)c1cc(C(=O)N2CCCC2COC(F)(F)F)n2c1COCC2)c1ccccc1 (stereo partly shown) [16en]
c. CC[C@@H](NC(=O)c1cc(C(=O)N2CCC[C@@H]2C)n2c1COCC2)c1cnc(C(F)(F)F)cc1C(F)(F)F [16by]
Write the entries in order, lowest recorded pIC50 first. Please respond with the labels ordered as the question requires.
c, a, b
(c: 6.10, a: 6.49, b: 6.74)

1. CC[C@@H](NC(=O)c1cc(C(=O)NC(C)c2ncccn2)c2n1CCOC2)c1ccccc1 (mixture of isomers) [16jz]
2. CC[C@@H](NC(=O)c1cc(C(=O)N2CC[C@H](OCC(C)C)C2)n2c1COCC2)c1ccccc1 [16fg]
Return label of the item with the larger pIC50. Candidates: 1 , 2 . Identify your selection by its label.
1
(1: 6.52, 2: 5.89)

----------
# target: Human TASK-1 channels (Homo sapiens (Human), UniProt O14649)
# assay.name: Determination of the activity on the TASK-1 channel in Xenopus oocytes (two-microelectrode voltage clamp)
# test.parameters: human TASK-1 expressed in Xenopus oocytes, room temperature; read-out: IC50 value for TASK-1 inhibition
property.label: IC50 (nM)

a. CC[C@@H](NC(=O)c1cc(C(=O)N[C@@H](c2ccccc2)C2CC2)n2c1CCCC2)c1ccccc1 [16mv]
b. CC[C@@H](NC(=O)c1cc(C(=O)NCC(C)(C)C)n2c1COCC2)c1ccccc1 [16go]
Please let me know which one, a or b , has a lower measured IC50 value. Identify your selection by its label.
a

1. CC[C@@H](NC(=O)c1cc(C(=O)N2CCC[C@@H]2C)n2c1SCC2)c1ccccc1 [16ks]
2. CC[C@@H](NC(=O)c1cc(C(=O)N(CC)CC)n2c1COCC2)c1ccccc1 [16gn]
Please let me know which one, 1 or 2 , has a lower measured IC50 value. Identify your selection by its label.
1
